Biological target: T1, human TGFβ1 (human, UniProt P01137 279-390)
T1 construct: also called TGFβ1 homodimer
T1 sequence (P01137 279-390 limits assumed): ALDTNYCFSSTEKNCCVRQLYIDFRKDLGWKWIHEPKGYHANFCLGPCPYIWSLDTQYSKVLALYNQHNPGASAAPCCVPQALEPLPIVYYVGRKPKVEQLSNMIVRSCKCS
Experiment: Biacore off-rate vs wt GC1008, 50 nM
Experimental: Plasmids encoding either the GC1008 heavy chain or light chain were used as a template in PCR-based mutagenesis reactions. […] Purified variant antibody samples were analyzed in duplicate on a Biacore® 3000 (GE Healthcare) at 50 nM concentrations, using the 100 RU level TGFβ1, 2, and 3 immobilized surfaces. […]
RESULT TYPE: kd var/kd wt

Task item: Consider the binder shown here: Y27T (antibody, V domains shown, GC1008 IgG4 variant) VH: QVQLVQSGAEVKKPGSSVKVSCKASGTTFSSNVISWVRQAPGQGLEWMGGVIPIVDIANYAQRFKGRVTITADESTSTTYMELSSLRSEDTAVYYCASTLGLVLDAMDYWGQGTLVTVSS VL: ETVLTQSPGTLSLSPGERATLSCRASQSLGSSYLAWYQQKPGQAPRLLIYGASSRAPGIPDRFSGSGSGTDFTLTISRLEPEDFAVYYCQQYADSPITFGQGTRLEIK What is its recorded kd var/kd wt?
Reply: 1.4

Task item: Queued: S31L (antibody, V domains shown, GC1008 IgG4 variant) VH: QVQLVQSGAEVKKPGSSVKVSCKASGYTFSLNVISWVRQAPGQGLEWMGGVIPIVDIANYAQRFKGRVTITADESTSTTYMELSSLRSEDTAVYYCASTLGLVLDAMDYWGQGTLVTVSS VL: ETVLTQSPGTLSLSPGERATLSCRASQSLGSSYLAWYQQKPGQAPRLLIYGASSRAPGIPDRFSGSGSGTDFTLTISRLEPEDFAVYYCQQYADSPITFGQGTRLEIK
Reply: 2

Task item: Queued: I54N (antibody, V domains shown, GC1008 IgG4 variant) VH: QVQLVQSGAEVKKPGSSVKVSCKASGYTFSSNVISWVRQAPGQGLEWMGGVIPNVDIANYAQRFKGRVTITADESTSTTYMELSSLRSEDTAVYYCASTLGLVLDAMDYWGQGTLVTVSS VL: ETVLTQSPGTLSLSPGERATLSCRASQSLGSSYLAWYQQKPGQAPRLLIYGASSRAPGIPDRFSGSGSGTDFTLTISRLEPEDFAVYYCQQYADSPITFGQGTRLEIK
Reply: 4.9

Task item: Queued: S31E (antibody, V domains shown, GC1008 IgG4 variant) VH: QVQLVQSGAEVKKPGSSVKVSCKASGYTFSENVISWVRQAPGQGLEWMGGVIPIVDIANYAQRFKGRVTITADESTSTTYMELSSLRSEDTAVYYCASTLGLVLDAMDYWGQGTLVTVSS VL: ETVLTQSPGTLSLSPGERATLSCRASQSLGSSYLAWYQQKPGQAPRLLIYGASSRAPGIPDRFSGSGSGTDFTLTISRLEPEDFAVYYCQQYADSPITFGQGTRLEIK
Reply: 1.7

Task item: Queued: S31T (antibody, V domains shown, GC1008 IgG4 variant) VH: QVQLVQSGAEVKKPGSSVKVSCKASGYTFSTNVISWVRQAPGQGLEWMGGVIPIVDIANYAQRFKGRVTITADESTSTTYMELSSLRSEDTAVYYCASTLGLVLDAMDYWGQGTLVTVSS VL: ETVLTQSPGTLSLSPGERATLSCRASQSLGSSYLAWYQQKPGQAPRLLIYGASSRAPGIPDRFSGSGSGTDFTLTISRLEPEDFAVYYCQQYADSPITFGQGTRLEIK
Reply: 1.6

All values here come from patent US20170342144A1.
